The reported numbers originate from patent US8883745B2.

- Tested on: IL-4
- ASSAY_SUMMARY: IL-4 levels in sera upon i.v. glycolipid administration to C57BL/6 mice (ELISA)
- Format: in vivo
- Design: unit not given here
- MEASUREMENT_SETUP: hour 2
REPORTED_PROPERTY: IL-4 level, average
Give bare numbers.

Consider the reported IL-4 level, average for these compounds:
COMPOUND	REPORTED
CCCCCCCCCCCCCC[C@@H](O)[C@@H](O)[C@H](CC[C@H]1O[C@H](CO)[C@H](O)[C@H](O)[C@H]1O)NC(=O)CCCCCCCCCCCCCCCCCCCOCCCCC	308
CCCCCCCCCCCCCCCCCCCCCCCCCC(=O)N[C@@H](CC[C@H]1O[C@H](CO)[C@H](O)[C@H](O)[C@H]1O)[C@H](O)[C@H](O)CCCCCCCCCCCCCC [CRONY, reference compound]	464
CCCCCCCCCCCCCCCCCCCCCCCCCCCCC(=O)N[C@@H](/C=C/[C@H]1O[C@H](CO)[C@H](O)[C@H](O)[C@H]1O)[C@H](O)[C@H](O)CCCCCCCCCCCCCC	443

Q. Quick one: IL-4 level, average of CCCCCCCCCCCCCCCCCC/C=C/CCCCCCCCC(=O)N[C@@H](/C=C/[C@H]1O[C@H](CO)[C@H](O)[C@H](O)[C@H]1O)[C@H](O)[C@H](O)CCCCCCCCCCCCCC ?
A. 1088

====

- Tested on: IL-12
- ASSAY_SUMMARY: IL-12 levels in sera upon i.v. glycolipid administration to C57BL/6 mice (ELISA)
- Type: in vivo
- Design: unit not given here
- MEASUREMENT_SETUP: C57BL/6, serum, hour 2
- Description: Five- to six-week-old female C57BL/6 mice and BALB/c mice were purchased from Taconic. Each glycolipid was stored at 1 mg/ml in 100% DMSO. […] At indicated time points, sera were collected from each animal, and concentrations of IFN-γ, IL-4, and IL-12 in the sera were evaluated by enzyme-linked immunosorbent assay (ELISA). Serum concentrations of IFN-γ, IL-4, and IL-12 were evaluated using an ELISA kit (eBioscience, San Diego, Calif.). […]
REPORTED_PROPERTY: IL-12 levels, test 1
One number for each entry.

COMPOUND	IL-12 levels, test 1
CCCCCCCCCCCCCC[C@@H](O)[C@@H](O)[C@H](CC[C@H]1O[C@H](CO)[C@H](O)[C@H](O)[C@H]1O)NC(=O)CCCCCCCCCCCCCCCCCCCOCCCCCC	490
CCCCCCCCCCCCCCCCC/C=C/CCCCCCCCC(=O)N[C@@H](CC[C@H]1O[C@H](CO)[C@H](O)[C@H](O)[C@H]1O)[C@H](O)[C@H](O)CCCCCCCCCCCCCC	79
CCCCCCCCCCCCCCCCCCCCCCCCCC(=O)N[C@@H](CC[C@H]1O[C@H](CO)[C@H](O)[C@H](O)[C@H]1O)[C@H](O)[C@H](O)CCCCCCCCCCCCCC [CRONY, reference compound]	0

Could you now look at the following compound, please?
Q. Quick one: IL-12 levels, test 1 of CCCCCCCCCCCCCC[C@@H](O)[C@@H](O)[C@H](CC[C@H]1O[C@H](CO)[C@H](O)[C@H](O)[C@H]1O)NC(=O)CCCCCCCCCCCCCCCCCCCOCCCCC ?
A. 117

====

For each entry below, report its IL-4 level, test 1 value.
- Tested on: IL-4
- ASSAY_SUMMARY: IL-4 levels in sera upon i.v. glycolipid administration to BALB/c mice (ELISA)
- Type: in vivo
- Parameters: unit not given here
- MEASUREMENT_SETUP: hour 6
Answers are plain numbers.

Consider the reported IL-4 level, test 1 for these compounds:
COMPOUND	REPORTED
CCCCCCCCCCCCCC[C@@H](O)[C@@H](O)[C@H](CC[C@H]1O[C@H](CO)[C@H](O)[C@H](O)[C@H]1O)NC(=O)CCCCCCCCCCCCCCCCCCCOCCCCCC	85
CCCCCCCCCCCCCCCCCCCCCCCCCC(=O)N[C@@H](CO[C@H]1O[C@H](CO)[C@H](O)[C@H](O)[C@H]1O)[C@H](O)[C@H](O)CCCCCCCCCCCCCC [KRN, reference compound]	214

Could you now look at the following compound, please?
Q. Quick one: IL-4 level, test 1 of CCCCCCCCCCCCCCCCCCCCCCCCCCCCC(=O)N[C@@H](/C=C/[C@H]1O[C@H](CO)[C@H](O)[C@H](O)[C@H]1O)[C@H](O)[C@H](O)CCCCCCCCCCCCCC ?
A. 90

====

For each entry below, report its IL-4 level, test 1 value.
- System: IL-4
- ASSAY_SUMMARY: IL-4 levels in sera upon i.v. glycolipid administration to BALB/c mice (ELISA)
- Type: in vivo
- Design: unit not given here
- MEASUREMENT_SETUP: hour 24
Give bare numbers.

Consider the reported IL-4 level, test 1 for these molecules:
MOLECULE	IL-4 level, test 1
CCCCCCCCCCCCCCCCCCCCCCCCCC(=O)N[C@@H](CC[C@H]1O[C@H](CO)[C@H](O)[C@H](O)[C@H]1O)[C@H](O)[C@H](O)CCCCCCCCCCCCCC [CRONY, reference compound]	49
CCCCCCCCCCCCCCCCC/C=C/CCCCCCCCC(=O)N[C@@H](CC[C@H]1O[C@H](CO)[C@H](O)[C@H](O)[C@H]1O)[C@H](O)[C@H](O)CCCCCCCCCCCCCC	44

I would be grateful if you could provide IL-4 level, test 1 for each of the following entries.
1. CCCCCCCCCCCCCCCCCCCCCCCCCC(=O)N[C@@H](CO[C@H]1O[C@H](CO)[C@H](O)[C@H](O)[C@H]1O)[C@H](O)[C@H](O)CCCCCCCCCCCCCC [KRN, reference compound]
2. CCCCCCCCCCCCCC[C@@H](O)[C@@H](O)[C@H](CC[C@H]1O[C@H](CO)[C@H](O)[C@H](O)[C@H]1O)NC(=O)CCCCCCCCCCCCCCCCCCCOCCCCC

A.
51
39

I would be grateful if you could provide IL-4 level, test 1 for each of the following entries.
1. CCCCCCCCCCCCCCCCCCCCCCCCCCCCC(=O)N[C@@H](/C=C/[C@H]1O[C@H](CO)[C@H](O)[C@H](O)[C@H]1O)[C@H](O)[C@H](O)CCCCCCCCCCCCCC
2. CCCCCCCCCCCCCC[C@@H](O)[C@@H](O)[C@H](CC[C@H]1O[C@H](CO)[C@H](O)[C@H](O)[C@H]1O)NC(=O)CCCCCCCCCCCCCCCCCCCOCCCCCC
3. CCCCCCCCCCCCCCCCCC/C=C/CCCCCCCCC(=O)N[C@@H](/C=C/[C@H]1O[C@H](CO)[C@H](O)[C@H](O)[C@H]1O)[C@H](O)[C@H](O)CCCCCCCCCCCCCC

A.
1: 43; 2: 50; 3: 40

====

- Tested on: IL-12
- ASSAY_SUMMARY: IL-12 levels in sera upon i.v. glycolipid administration to C57BL/6 mice (ELISA)
- Assay type: in vivo
- Set-up: unit not given here
- MEASUREMENT_SETUP: C57BL/6, serum, hour 6
Label YES when IL-12 levels, test 2 is strictly below 600; at or above that, label NO.

COMPOUND	CLASS_NAME
CCCCCCCCCCCCCCCCCCCCCCCCCC(=O)N[C@@H](CC[C@H]1O[C@H](CO)[C@H](O)[C@H](O)[C@H]1O)[C@H](O)[C@H](O)CCCCCCCCCCCCCC [CRONY, reference compound]	YES
CCCCCCCCCCCCCCCCCCCCCCCCCCCCC(=O)N[C@@H](/C=C/[C@H]1O[C@H](CO)[C@H](O)[C@H](O)[C@H]1O)[C@H](O)[C@H](O)CCCCCCCCCCCCCC	NO
CCCCCCCCCCCCCCCCC/C=C/CCCCCCCCC(=O)N[C@@H](CC[C@H]1O[C@H](CO)[C@H](O)[C@H](O)[C@H]1O)[C@H](O)[C@H](O)CCCCCCCCCCCCCC	YES
CCCCCCCCCCCCCCCCCCCCCCCCCC(=O)N[C@@H](CO[C@H]1O[C@H](CO)[C@H](O)[C@H](O)[C@H]1O)[C@H](O)[C@H](O)CCCCCCCCCCCCCC [KRN, reference compound]	NO
CCCCCCCCCCCCCC[C@@H](O)[C@@H](O)[C@H](CC[C@H]1O[C@H](CO)[C@H](O)[C@H](O)[C@H]1O)NC(=O)CCCCCCCCCCCCCCCCCCCOCCCCCC	NO
CCCCCCCCCCCCCC[C@@H](O)[C@@H](O)[C@H](CC[C@H]1O[C@H](CO)[C@H](O)[C@H](O)[C@H]1O)NC(=O)CCCCCCCCCCCCCCCCCCCOCCCCC	NO

Please turn your attention to the following entry.
Q. In plain terms, does CCCCCCCCCCCCCCCCCC/C=C/CCCCCCCCC(=O)N[C@@H](/C=C/[C@H]1O[C@H](CO)[C@H](O)[C@H](O)[C@H]1O)[C@H](O)[C@H](O)CCCCCCCCCCCCCC come in under 600 for IL-12 levels, test 2?
A. NO
